- Target system: T1, human GLP-2 receptor (hGLP2-R) (human, UniProt O95838)
- T1 sequence: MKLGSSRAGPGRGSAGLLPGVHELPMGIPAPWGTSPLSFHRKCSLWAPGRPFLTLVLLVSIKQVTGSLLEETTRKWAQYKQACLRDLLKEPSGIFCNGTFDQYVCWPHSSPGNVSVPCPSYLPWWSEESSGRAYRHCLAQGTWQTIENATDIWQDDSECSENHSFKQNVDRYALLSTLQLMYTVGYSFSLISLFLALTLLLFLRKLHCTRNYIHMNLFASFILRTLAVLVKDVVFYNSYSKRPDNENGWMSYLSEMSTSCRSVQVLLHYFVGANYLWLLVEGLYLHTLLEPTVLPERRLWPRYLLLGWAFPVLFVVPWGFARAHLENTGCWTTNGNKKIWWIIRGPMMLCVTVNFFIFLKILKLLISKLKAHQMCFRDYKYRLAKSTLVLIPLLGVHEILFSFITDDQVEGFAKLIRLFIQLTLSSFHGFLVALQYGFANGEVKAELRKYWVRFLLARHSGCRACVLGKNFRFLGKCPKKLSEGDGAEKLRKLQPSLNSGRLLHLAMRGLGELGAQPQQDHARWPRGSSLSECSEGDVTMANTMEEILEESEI
- Assay info: cell-based or functional assay
Square brackets hold non-standard residues; d marks the D form. Aib = CC(C)(N)C(=O)O
Measured endpoint: EC50 GLP-2 (nM); cAMP AlphaScreen

Binder	Unit string	Number
H-HGEGTFTSELATILDEQAARDFIAWLIAHKITD-OH [Compound 38]	nM	0.043

(A) H-H[Aib]EGSFTSELATILDEQAARDFIAWLYRHKITD-OH (not fully specified; printed as Hy-H[Aib]EGSFTSELATILDEQAARDFIAWLYRHKITD-OH) [Compound 30]
(B) H-H[Aib]EGTFTSELSTILDEQAARDFIAWLHAQKITD-OH (not fully specified; printed as Hy-H[Aib]EGTFTSELSTILDEQAARDFIAWLHAQKITD-OH) [Compound 27]
(C) H-HGEGSFSSELATILDEQAARDFIAWLIQHKITD-NH2 [Compound 40]
Problem: Could you please sort these 3 entries by EC50 GLP-2 (nM); cAMP AlphaScreen from high to low? Write the labels, ordered according to the request.
Solution: B, C, A
(B: 0.37 nM, C: 0.05 nM, A: 0.034 nM)
